experiment: Acute toxicity in mice; parameters: species or system ddy mice; settings: mouse, in vivo, ip; i.p. single dose, ddy mice 15 ~ 20 g, day 21; dissolved in dimethylsulfoxide; read-out: LD50, i.p. route
Listing of entries alongside the reported LD50 at 504 h.

COc1ccc(/C=C/C(=O)c2c(OC)cc(OC)cc2OC(=O)c2ccc(OC)cc2)cc1 | > 500 mg/kg

stdin: What value of LD50 at 504 h has been recorded for this entry: COc1cc(OC)c(C(=O)/C=C/c2ccc3c(c2)OCO3)c(OP(=O)(O)O)c1
stdout: > 500 mg/kg

stdin: # repeat for CCOc1cc(OC)c(C(=O)/C=C/c2ccc(OC)cc2)c(OP(=O)(O)O)c1
stdout: > 500 mg/kg

stdin: Cool, now CC[N+](CC)(CC)CC(=O)Oc1cc(OC)cc(OC)c1C(=O)/C=C/c1ccc(OC)cc1.[Cl-]
stdout: 180 mg/kg

Numbers sourced from patent US4327088A.
